measured target: T1, human CD16A-Fc^48R/158V fusion protein (human, UniProt P08637 17-208, limits assumed)
T1 construct: Secreted soluble fusion made in HEK-293 cells; also called CD16-Fc; CD16A Fc-fusion protein; not shown: Fc portion of human IgG1
T1 sequence (P08637 17-208 L66R/F176V limits assumed): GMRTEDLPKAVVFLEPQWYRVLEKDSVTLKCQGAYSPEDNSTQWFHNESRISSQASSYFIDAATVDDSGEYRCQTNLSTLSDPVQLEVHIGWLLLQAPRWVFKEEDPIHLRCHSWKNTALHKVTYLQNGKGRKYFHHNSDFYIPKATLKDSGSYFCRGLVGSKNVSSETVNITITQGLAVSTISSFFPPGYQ
protocol: SPR, BIAcore 2000, CD16A-Fc immobilized on CM5, 1:1 Langmuir

binder	koff (s⁻¹)
affinity matured anti-CD16A scFv 3-LB5 (scFv, IMAC-purified from pSKK2; oligomeric state not analysed) scFv: EVQLVQSGAEVKKPGESLKVSCKASGYTFTSYYMHWVRQAPGQGLEWMGIINPSGGSTSYAQKFQGRVTMTRDTSTSTVYMELSSLRSEDTAVYYCARGSAYYYDFADYWGQGTLVTVSSGSASAPTLKLEEGEFSEARVSYELTQPPSVAVAPGKTARITCGGNNIGSKNVHWYQQKPGQAPVLVIYRDSNRPSGIPERFSGSNSGNTATLTISRAQAGDEADFYCQVWDNYIVLFGGGTKLTVLGQPKAAPSVTLFPPSAAAGSEQKLISEEDLNSHHHHHH	0.00297
